biological target: T1, recombinant human VEGF165 (human, UniProt P15692-4 27-191, biotinylated in the competition assays); assay: AlphaScreen, hVEGF165/hVEGFR2-Fc competition
T1 construct: Bought protein; also called hVEGF165; rhVEGF165
T1 sequence (P15692 other isoform, or with tags, fused parts or gaps): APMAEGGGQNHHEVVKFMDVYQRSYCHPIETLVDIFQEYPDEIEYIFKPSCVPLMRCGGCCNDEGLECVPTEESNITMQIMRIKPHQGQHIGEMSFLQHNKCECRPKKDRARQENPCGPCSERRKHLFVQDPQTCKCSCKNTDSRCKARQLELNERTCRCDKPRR
test.readout: IC50 (nM)
Record the value in nM, omitting the unit from your answer.

Examples with their reported IC50 follow.
VEGFBII23B04 (VHH, not shown: small tags and cut ends, also called VEGFBII23B4; VEGFBII23B04 (wt)) VHH: EVQLVESGGGLVQTGDSLRLSCEVSGRTFSSYSMGWFRQAQGKEREFVVAISKGGYKYDSVSLEGRFTISKDNAKNTVYLQINSLKPEDTAVYYCASSRAYGSSRLRLADTYEYWGQGTQVTVSS = 0.169
VEGFBII113A08 (VHH) VHH: EVQLVESGGGLVQTGGSLRLSCEVSGRTFSSYSMGWFRQAPGKEREFVVAISKGGYKYDSVSLEGRFTISKDNAKNTVYLQINSLRPEDTAVYYCASSRAYGSSRLRLADTYEYWGQGTLVTVSS = 0.253
VEGFBII112D11 (VHH) VHH: EVQLVESGGGLVQPGGSLRLSCEASGRTFSSYSMGWFRQAPGKEREFVVAISKGGYKYDSVSLEGRFTISRDNAKNTVYLQINSLRPEDTAVYYCASSRAYGSSRLRLADTYEYWGQGTLVTVSS = 0.221
VEGFBII114C09 (VHH) VHH: EVQLVESGGGLVQPGDSLRLSCEVSGRTFSSYSMGWFRQAPGKEREFVVAISKGGYKYDSVSLEGRFTISKDNAKNTVYLQINSLRPEDTAVYYCASSRAYGSSRLRLADTYEYWGQGTLVTVSS = 0.215
VEGFBII111G06 (VHH) VHH: EVQLVESGGGLVQPGGSLRLSCAASGRTFSSYSMGWFRQAPGKEREFVVAISKGGYKYDSVSLEGRFTISRDNAKNTVYLQMNSLRPEDTAVYYCASSRAYGSSRLRLADTYEYWGQGTLVTVSS = 0.366

Value lookup for IC50; key = VEGFBII118E10 (VHH) VHH: EVQLVESGGGLVQTGDSLRLSCEVSGRTFSSYSMGWFRQAQGKEREFVVAISKGGYKYDAVSLEGRFTISKDNAKNTVYLQINSLKPEDTAVYYCASSRAYGSSRLRLADTYEYWGQGTQVTVSS
0.189

Value lookup for IC50; key = VEGFBII114D02 (VHH) VHH: EVQLVESGGGLVQTGGSLRLSCEVSGRTFSSYSMGWFRQAPGKEREFVVAISKGGYKYDSVSLEGRFTISRDNAKNTVYLQINSLRPEDTAVYYCASSRAYGSSRLRLADTYEYWGQGTLVTVSS
0.199

Value lookup for IC50; key = VEGFBII113E03 (VHH) VHH: EVQLVESGGGLVQTGDSLRLSCEVSGRTFSSYSMGWFRQAQGKEREFVVAISKGGYKYDSVSLEGRFTISKDNAKNTVYLQMNSLRPEDTAVYYCASSRAYGSSRLRLADTYEYWGQGTLVTVSS
0.29

Value lookup for IC50; key = VEGFBII114D03 (VHH) VHH: EVQLVESGGGLVQTGDSLRLSCAVSGRTFSSYSMGWFRQAQGKEREFVVAISKGGYKYDSVSLEGRFTISKDNAKNTVYLQINSLRPEDTAVYYCASSRAYGSSRLRLADTYEYWGQGTLVTVSS
0.227

Value lookup for IC50; key = VEGFBII111D05 (VHH) VHH: EVQLVESGGGLVQTGGSLRLSCEASGRTFSSYSMGWFRQAPGKEREFVVAISKGGYKYDSVSLEGRFTISRDNAKNTVYLQINSLRPEDTAVYYCASSRAYGSSRLRLADTYEYWGQGTLVTVSS
0.209
